System: PPARg DBDmut IVT, anti-PPARg (DBD mutation: PPARg1 K132A/R137A, NR concentration 270 nM)
assay-info: PBM binding z-score (relative to random genomic background probes); higher = stronger binding; sequences stand for … in GC…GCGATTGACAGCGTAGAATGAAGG
Each entry below carries its reported PBM binding z-score.
reported-property: PBM binding z-score

INSERT INTO measurements (ordered_residues, endpoint_value) VALUES
  ('TAGCCTTGGTCATGGGCCAGTATACCACGCGAAC', -0.717),
  ('TCTTGTAGGTCAAGCAGGTTAAGAAAGCCTGAGT', 1.83),
  ('CCTAGTTGGTCAGGAGGTCACACATCGGATATGA', 0.678),
  ('ACTTACGGGTTAACGAGGTTATAGCACGCGTATA', 1.18),
  ('CCTACTGGGACAAGGTCATTGATCAGTCAAAGCA', -0.0828),
  ('ATCTCTAGGTAACGAGTTCAGTGAAAGAGAGGAC', 0.668),
  ('TCTCGGAGGACACGAATGTCAGAGCTTTCCAGAG', -1.02),
  ('AATACAGGGTCCCTAGGCCAGAGTAGGTACGAAT', -1.31),
  ('TTACCAAGGTGAGCTGAGGTCGTTGAACCAACTC', -1.13),
  ('ATCTCTCGGTAACCAAGTTCAGTGAATGCCGAAC', 0.409),
  ('TCTTGTAGATCAACAGGAGGTTCAGAAAGATCGA', 0.251),
  ('ATATGAAGGTTACATCCGGGTCATTCAGGCTATG', 1.68),
  ('ATCTCTAGGTAACCAAGGTCAGTGAATGCCGAAC', 1.3),
  ('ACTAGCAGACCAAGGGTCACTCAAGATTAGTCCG', -0.38),
  ('CCGACTGGGGCAAAGGTTGCCATACTCAGTACGA', -0.658),
  ('GCGAATGGGGCAAAGCAGGTTACCATAAGGTTGG', -1.21),
  ('TCTAGTTGGTCACGGAGGTCATACACGACGGGTA', 1.06),
  ('GCTAGGAGGCCATTTGGGTCACTCAATGACGGGC', -0.88),
  ('CCTTACGGGTCAAGGTTTTAGCACGGGTGGTACG', -0.72),
  ('CCTGACAGGTGAAAGGTAACTCAGTCTGGTACGC', -0.0292),
  ('TTGCCAAGGTGAAGGTCGTTGATCCCTCTGTAGA', -0.656),
  ('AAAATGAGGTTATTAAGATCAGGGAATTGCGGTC', 0.452),
  ('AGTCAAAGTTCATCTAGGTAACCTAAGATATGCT', 1.29),
  ('GCCAGTTGGTCAGTAAAAGGTCACACACCGGTCG', 0.231),
  ('CCTACTGGGCCACGACAGGTCATTGATTCAGTGA', -0.106),
  ('AGAATGAGGTTATTAATATCAGGGAATTGCGGTC', 0.456),
  ('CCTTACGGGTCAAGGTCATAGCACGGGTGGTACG', -0.425);

====

Test system: THRa:RXRa (NR concentration 90 nM, RXRa partner concentration 90 nM)
assay-info: PBM binding z-score (relative to random genomic background probes); higher = stronger binding; sequences stand for … in GC…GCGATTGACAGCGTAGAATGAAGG
Each entry below carries its reported PBM binding z-score.
reported-property: PBM binding z-score

INSERT INTO assay_data (ordered_residues, endpoint_value) VALUES
  ('CCTATTAGTTAACCATAAGGGCAACCGAAGCTCG', 1.9),
  ('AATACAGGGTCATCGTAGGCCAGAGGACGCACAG', 4.56),
  ('CCGACTGGGGCAGAAAGGTTGCCATACCATCCGG', -0.0628),
  ('GCTGCTAGGTCAACAGATGGTCAGCTAAAGCTCG', 2.56),
  ('TCCAGTAGGTTAGGGGCATTCAGAATGGCGTCGA', 0.915),
  ('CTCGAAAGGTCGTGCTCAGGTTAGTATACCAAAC', 3.73),
  ('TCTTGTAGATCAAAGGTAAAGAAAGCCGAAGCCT', 0.386),
  ('AGTCAAAGTTCAGGACGAAGTAACGTAAAGCACG', 1.95),
  ('CCTTACGGGACACTCCAGGTTATAGCATCGGAGT', 1.84),
  ('TCTAGTAGATCAACAGGAGGTTAAGAAAGATCGA', 0.727),
  ('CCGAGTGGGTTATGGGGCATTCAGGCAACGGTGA', 0.303),
  ('CCAGACAGGTGAGAAGGTGACTCAGCCTCGATTA', 0.445),
  ('ACAGACAGGTTATGAAGGTAACTCAGGCTATCAT', 1.51),
  ('TAGCCTAGGTCATGCGGGGCAGTATAGTGTCGGC', 3.56),
  ('TCTTGTAGATCTACAGGAGGTTAAGAAAGATCGA', 0.534),
  ('CGTCCAAGCTCAAAGGTCAGTGAAGAGATGACGG', 2.33),
  ('TATACAGGGTCAAAGGCCAGCGTACGAATGTCGA', 3.54),
  ('CCTAGTTGGTCAAGGTCACCCACGCTATAGGTAC', 4.22),
  ('AGTCAAAGTTCATCTAGCTAACGTAAGATATGCT', 1.67),
  ('CGTCCAAGGTCAAGGGTCAGTGAAGAGATGACGG', 4.58),
  ('AATACAGGGTCATTGTAGGCCAGAGTACGCACAG', 4.59),
  ('CCTACTGGGCCATAAGGTCATTGATATCAACGTT', 4.14),
  ('CCTAGTTGGTCAGGAGGTCACACGCCGGATATGA', 3.41),
  ('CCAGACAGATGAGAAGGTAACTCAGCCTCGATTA', 0.0683),
  ('CCGCCTGGGGCAAGGTTACCATAACGCACAGCCA', 1.3),
  ('CCGACTGGGGCAGAACGGTTACCATACCATCCGG', -0.413),
  ('TGAATGAGGTTAAAGAACAGGGAACGTGGCGTCG', 2.03),
  ('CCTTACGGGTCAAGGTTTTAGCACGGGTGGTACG', 2.51),
  ('ATCGAAAGGTAGAGGTGAGTATAGAGAAAGGGAA', 0.94),
  ('GATACAGGGTCAGCTAGAGGACAGAGTATGGAAA', 3.79),
  ('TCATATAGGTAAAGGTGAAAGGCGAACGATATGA', 1.7),
  ('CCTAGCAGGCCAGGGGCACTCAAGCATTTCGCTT', -0.336),
  ('CCTCGGAGGACAGAAGATCAGAGCTGTCCGCTTT', -0.0672),
  ('AGAATGAGGTTAAGATCCGGGAAACAGAATACAT', 2.37);
